System: ACHN
Assay: NCI tumour cell line growth inhibition, 48 h
Calls of active or inactive are those of the source. Cut-off read from the data, not from the text of the source: active = GI50 up to about 1.1 µM and inactive = higher.
Items are presented alongside their recorded GI50.
Endpoint name: GI50

{"Compound": "C[C@]12CCC(=O)C=C1CC[C@@H]1[C@@H]2[C@@H](O)C[C@@]2(C)[C@H]1CC[C@]2(O)C(=O)CO [HYDROCORTISONE]", "Experimental value": "> 100 µM (inactive)"}
{"Compound": "O=C(c1ccc([N+](=O)[O-])cc1)C(Br)C(Br)c1ccnc2ccccc12 (centres undefined)", "Experimental value": "4.61 µM (inactive)"}
{"Compound": "Cc1cccc2c(N)c3cccc(C(=O)NCCNCCN)c3nc12", "Experimental value": "3.8 µM (inactive)"}
{"Compound": "COc1ccc(NC(=O)CC(=O)N2N=C(N3CCCCC3)CC2c2ccccc2)cc1 (centres undefined)", "Experimental value": "> 100 µM (inactive)"}
{"Compound": "O=C1c2ccccc2C(O)(O)C1(O)C1(O)C(=O)c2ccccc2C1(O)O (centres undefined)", "Experimental value": "21.3 µM (inactive)"}
{"Compound": "CC1(C)OC2C(CCP(=O)(O)O)OC(c3nc(C(N)=O)cs3)C2O1 (centres undefined)", "Experimental value": "> 100 µM (inactive)"}
{"Compound": "CCOC(=O)c1csc(NC(=O)CCCC#N)n1", "Experimental value": "> 100 µM (inactive)"}
{"Compound": "COC1OC(C)C(OCc2ccccc2)C(OS(=O)(=O)c2ccc(C)cc2)C1OS(=O)(=O)c1ccc(C)cc1 (centres undefined)", "Experimental value": "> 100 µM (inactive)"}
{"Compound": "COc1ccc(C2=Nc3c(nc(OC)[nH]c3=O)NC(c3ccccc3)C2)cc1 (centres undefined)", "Experimental value": "27.5 µM (inactive)"}

====

System: EKVX
Test: NCI tumour cell line growth inhibition, 48 h
Active and inactive are the calls of the source. Cut-off read from the data, not from the text of the source: active = GI50 up to about 1.1 µM and inactive = higher.

{"Compound": "CCOC(=O)C(=Cc1ccccc1Cl)C(=O)OCC", "GI50": "3.03 µM (inactive)"}
{"Compound": "N#CCC(=O)Nc1ccccc1O", "GI50": "> 100 µM (inactive)"}
{"Compound": "COc1ccc(/C=C2\\CN(C)CC3=C2OC(N)=C(C#N)C3c2ccc(OC)cc2)cc1 (stereo not given)", "GI50": "43.4 µM (inactive)"}
{"Compound": "COc1ccc(C2=Nc3c(nc(OC)[nH]c3=O)NC(c3ccccc3)C2)cc1 (stereo not given)", "GI50": "33.9 µM (inactive)"}
{"Compound": "CN(C)CCNC1=CC(=O)c2c(O)ccc(O)c2C1=O", "GI50": "12.8 µM (inactive)"}
{"Compound": "COc1cc(C=C(c2ccc(N(C)C)cc2)c2ccc(N(C)C)cc2)c2ccccc2c1OC", "GI50": "> 100 µM (inactive)"}
{"Compound": "C[C@]12CC[C@@H]3c4cc(OCC(F)(F)F)c(O)cc4CC[C@H]3[C@@H]1CC[C@@H]2O", "GI50": "8.17 µM (inactive)"}
{"Compound": "CCOC(=O)C1(C(=O)OCC)CN(CC)CN(c2ccccc2)C1", "GI50": "17.6 µM (inactive)"}
{"Compound": "COc1cccc(NC(=O)c2c(N)n[nH]c2SC)c1", "GI50": "> 100 µM (inactive)"}
{"Compound": "COc1ccc(/N=C/c2ccc(N(CCC#N)S(=O)(=O)c3ccccc3)cc2)cc1", "GI50": "> 100 µM (inactive)"}
{"Compound": "Nc1ccc(-c2ccc(Nc3cc(S(=O)(=O)O)c(N)c4c3C(=O)c3ccccc3C4=O)cc2)c(S(=O)(=O)O)c1", "GI50": "> 100 µM (inactive)"}
{"Compound": "CCN(CC)CCN(C(=O)C(C)(C)C)c1ccccc1N", "GI50": "> 100 µM (inactive)"}
{"Compound": "CCCCOC(=O)NC(Nc1cccc(C(F)(F)F)c1)(C(F)(F)F)C(F)(F)F", "GI50": "51.5 µM (inactive)"}
{"Compound": "COc1cc2c(c(C)c1O)[C@H]1COc3ccccc3[C@H]1O2", "GI50": "12.2 µM (inactive)"}
{"Compound": "CC1=CC(C)(C)Nc2ccc(CSc3ccccc3)cc21", "GI50": "22.1 µM (inactive)"}
{"Compound": "CN(C)CC1CCC/C(=C\\c2ccc(OC(=O)/C=C/c3ccccc3)cc2)C1=O (stereo not given)", "GI50": "2.18 µM (inactive)"}
{"Compound": "CCOC(=O)C(NC(=O)CC)(Nc1ccc(F)cc1F)C(F)(F)F (stereo not given)", "GI50": "> 100 µM (inactive)"}
{"Compound": "CCCCOC(=O)N[C@H]1CCc2cc(OC)c(OC)c(OC)c2-c2ccc(SC)c(=O)cc21", "GI50": "16.3 µM (inactive)"}
{"Compound": "CN1C(=O)C(/C=N/NC(=O)c2cccnc2)C(N)N(C)C1=O (stereo not given)", "GI50": "> 100 µM (inactive)"}
{"Compound": "Cc1c(/N=C\\c2ccc(N(CCC#N)CCC#N)cc2)c(=O)n(-c2ccccc2)n1C", "GI50": "> 93.5 µM (inactive)"}

The measurements presented in this section are drawn from ChEMBL document CHEMBL1201862.
